Tested on: Salmonella typhimurium
assay-text: Antimicrobial activity against Salmonella typhimurium ATCC 19430 incubated for 18 hrs by agar dilution method
Assay type: functional, Salmonella enterica subsp. enterica serovar Typhimurium
particulars: Salmonella enterica, ATCC 19430, 18 h
measured-parameter: MIC (µM)
Just the number in µM, nothing appended.

| compound-structure-string | MIC / µM |
| --- | --- |
| CCn1cc(C(=O)N[C@@H](Cc2c[nH]c3ccccc23)C(=O)N2CCN(c3cc4c(cc3F)c(=O)c(C(=O)O)cn4C3CC3)CC2)c(=O)c2ccc(C)nc21 | 427 |

Query: Data request, read-out MIC, for "CCn1cc(C(=O)O)c(=O)c2cc(F)c(N3CCN(C(=O)[C@H](Cc4ccccc4)NC(=O)c4cn(CC)c5nc(C)ccc5c4=O)CC3)cc21"
Reply: 115

Query: Data request, read-out MIC, for "CCn1cc(C(=O)O)c(=O)c2ccc(C)nc21"
Reply: 7.2
